target: LIMK2KD (Homo sapiens, UniProt P53671); construct: The cDNA coding for LIMK2 residues 330 to 632 was PCR amplified; His6 (N, cleaved yes); made in house; host or cells: baculovirus; Sf9 for virus, TriEx insect cells for expression; experiment: Differential (dynamic) scanning fluorimetry (DSF) assay, LIMK2KD; type: binding; conditions: LIMK2KD, compound 10 µM, single shot; read-out: TM Shift LIMK2 (K)
Sequence (P53671 330-632): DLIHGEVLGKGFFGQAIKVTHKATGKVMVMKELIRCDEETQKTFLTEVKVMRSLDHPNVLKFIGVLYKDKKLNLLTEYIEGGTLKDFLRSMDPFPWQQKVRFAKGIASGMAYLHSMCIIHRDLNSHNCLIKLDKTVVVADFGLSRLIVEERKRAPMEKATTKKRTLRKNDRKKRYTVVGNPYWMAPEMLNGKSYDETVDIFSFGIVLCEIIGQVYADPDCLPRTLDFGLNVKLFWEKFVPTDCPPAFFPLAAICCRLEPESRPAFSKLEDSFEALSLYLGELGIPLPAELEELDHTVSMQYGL
Where a name gives a salt, the structure may show the parent alone.
ΔTm at 10 µM of 0.6 °C or higher: Yes. Under 0.6 °C: No.

> print(dat)
                                   compound  group.label
1  NC(=O)c1ncn([C@@H]2O[C@H](CO)[C@@H](O)[C@H]2O)c1N [Acadesine]          Yes
2  Cc1c[nH]c(-c2cnc(NCCNc3ccc(C#N)cn3)nc2-c2ccc(Cl)cc2Cl)n1 [CHIR-99021 (CT99021) HCl]           No
3  COc1cc(Nc2ncc3c(n2)-c2ccc(Cl)cc2C(c2c(F)cccc2OC)=NC3)ccc1C(=O)O [Alisertib (MLN8237), Alisertib]          Yes
4  COc1ccc(-c2nc(N3CCOCC3)c3sc(CN(C)c4ncc(C(=O)NO)cn4)cc3n2)cn1 [CUDC-907]           No
5  Cc1cc(O)c2c(c1)C(=O)c1cccc(O)c1C2=O [Chrysophanic Acid]          Yes
6  Cc1cc(Nc2cc(N3CCN(C)CC3)nc(/C=C/c3ccccc3)n2)n[nH]1 [ENMD-2076]          Yes

###

target: LIMK1KD (Homo sapiens); construct: His6 (N, cleaved yes); made in house; host or cells: baculovirus; Sf9 for virus, TriEx insect cells for expression; test: Differential (dynamic) scanning fluorimetry (DSF) assay, LIMK1KD; format: binding; settings: 2 µM LIMK1KD, compound 10 µM, single shot; read-out: TM Shift LIMK1 (K)
property: ΔTm at 10 µM (°C)

> print(dat)
                                   compound      property  reported.measurement
1  Nc1ncnc2c1c(-c1cccc(OCc3ccccc3)c1)cn2[C@H]1C[C@@H](CN2CCC2)C1 [NVP-AEW541]  ΔTm at 10 µM                  -0.2
2  OCCn1cc(-c2ccc3c(c2)CC/C3=N\O)c(-c2ccncc2)n1 [GDC-0879]  ΔTm at 10 µM                  -0.7
3  COc1cc(N2CCC(N3CCN(C)CC3)CC2)ccc1Nc1ncc(Cl)c(Nc2ccccc2P(C)(C)=O)n1 [AP26113]  ΔTm at 10 µM                   3.4
4  CCc1nc(-c2cccc(C)c2)c(-c2ccnc(NC(=O)c3ccccc3)c2)s1 [TAK-715]  ΔTm at 10 µM                   0.4
5  Cc1cc(Nc2cc(CN3CCOCC3)c3nc(C)c(Cc4ccc(Cl)cc4F)n3n2)n[nH]1 [LY2784544]  ΔTm at 10 µM                     5
6  Cc1ccc(NC(=O)c2ccc(CN3CCN(C)CC3)cc2)cc1Nc1nc(-c2cccnc2)cs1 [Masitinib (AB1010), Masitinib]  ΔTm at 10 µM                   0.4
7  O=C(NCCCNc1nc(Nc2cccc(NC(=O)N3CCCC3)c2)ncc1I)c1cccs1 [BX-795]  ΔTm at 10 µM                     5
8  C=CCN(/C=C1/C(=O)O[C@H](COC)[C@@]2(C)C1=C(O)C(=O)C1=C2[C@H](OC(C)=O)C[C@]2(C)C(=O)CC[C@@H]12)CC=C [Sonolisib]  ΔTm at 10 µM                   0.7

###

Each entry below carries its reported ΔTm at 10 µM.
target: LIMK1KD (Homo sapiens, UniProt P53667); construct: His6 (N, cleaved yes); made in house; host or cells: baculovirus; Sf9 for virus, TriEx insect cells for expression; test: Differential (dynamic) scanning fluorimetry (DSF) assay, LIMK1KD; format: binding; conditions: 2 µM LIMK1KD, compound 10 µM, single shot; read-out: TM Shift LIMK1 (K)
Sequence (P53667 330-637): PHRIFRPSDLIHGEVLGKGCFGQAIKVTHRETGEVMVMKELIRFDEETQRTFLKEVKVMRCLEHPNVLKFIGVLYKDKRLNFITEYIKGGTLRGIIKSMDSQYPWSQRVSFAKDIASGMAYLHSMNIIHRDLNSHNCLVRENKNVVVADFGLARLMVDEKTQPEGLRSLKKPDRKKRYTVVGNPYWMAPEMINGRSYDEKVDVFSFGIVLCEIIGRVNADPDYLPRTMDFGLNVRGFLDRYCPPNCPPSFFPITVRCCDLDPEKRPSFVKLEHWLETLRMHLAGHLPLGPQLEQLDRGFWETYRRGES
property: ΔTm at 10 µM (°C)

> print(dat)
                                    compound  reported.measurement
 1  Cc1cc2c(F)c(Oc3ncnn4cc(OC[C@@H](C)O)c(C)c34)ccc2[nH]1                   0.8
 2  Cc1cc(Nc2ncc(Cl)c(Nc3ccccc3S(=O)(=O)C(C)C)n2)c(OC(C)C)cc1C1CCNCC1                   0.2
 3  CC(C)(C)c1nc(-c2cccc(NS(=O)(=O)c3c(F)cccc3F)c2F)c(-c2ccnc(N)n2)s1                  10.3
 4  Cn1c(Nc2ccc(C(F)(F)F)cc2)nc2cc(Oc3ccnc(-c4ncc(C(F)(F)F)[nH]4)c3)ccc21                   1.1
 5  COc1cc(F)c(F)c(Nc2ccc(I)cc2F)c1NS(=O)(=O)C1(C[C@H](O)CO)CC1                    -1
 6         O=C1Nc2ccccc2/C1=C1/Nc2ccccc2C1=O                   1.4
 7  N#Cc1ccc2[nH]c(O)c(-c3ccc(CN4CCOCC4)cn3)c2c1                   0.5
 8  CN1CCN(c2nc(C3=C(c4c[nH]c5ccccc45)C(=O)NC3=O)c3ccccc3n2)CC1                   0.6
 9  COc1cc2ncnc(Oc3cccc(NC(=O)Nc4cc(C(C)(C)C(F)(F)F)on4)c3)c2cc1OC                  -0.2
10  C[S+]([O-])c1ccc(-c2nc(-c3ccncc3)c(-c3ccc(F)cc3)[nH]2)cc1 (centres unmarked)                   1.3
11  Cc1cnc(Nc2ccc(OCCN3CCCC3)cc2)nc1Nc1cccc(S(=O)(=O)NC(C)(C)C)c1                   3.2
12      O=c1c(-c2ccc(O)cc2)coc2cc(O)cc(O)c12                  -0.3
13  CC(C)(C)c1cc(/C=C(\C#N)C(N)=S)cc(C(C)(C)C)c1O                   0.1
14  CC(C)(C)Cn1c(N)nc2ccc(-c3[nH]c(C(C)(C)C)nc3-c3ccc(F)cc3)nc21                   3.2
15  CN(C[C@@H]1COCCO1)S(=O)(=O)Nc1ccc2ccc3ncc(-c4cnn(C)c4)cc3c(=O)c2c1                   0.8
16  C[C@H]1[C@H](C)CC[C@]2(C(=O)O)CC[C@]3(C)C(=CC[C@@H]4[C@@]5(C)C[C@@H](O)[C@H](O)[C@@](C)(CO)[C@@H]5CC[C@]43C)[C@H]12                  -0.9
17  Cc1cc(Nc2cc(N3CCN(C)CC3)nc(/C=C/c3ccccc3)n2)n[nH]1                   4.6
18  CC(C)(C)c1cc(NC(=O)Nc2ccc(-c3cn4c(n3)sc3cc(OCCN5CCOCC5)ccc34)cc2)no1                  -1.4
19  COc1cc2c(Oc3ccc4[nH]c(C)cc4c3F)ncnc2cc1OCCCN1CCCC1                  -0.2
20  COCCNCc1ccc(-c2cc3nccc(Oc4ccc(NC(=S)NC(=O)Cc5ccc(F)cc5)cc4F)c3s2)nc1                   3.6
21  COc1cc(Nc2ncc(F)c(Nc3ccc4c(n3)NC(=O)C(C)(C)O4)n2)cc(OC)c1OC                   5.5
22  C[C@@H]1COC(Nc2ccc3ncnc(Nc4ccc(OCc5nccs5)c(Cl)c4)c3c2)=N1                   0.9
23  COc1ccc(-c2ccc3ncc4c(c3c2)n(-c2ccc(N3CCNCC3)c(C(F)(F)F)c2)c(=O)n4C)cn1                  -0.1
